tested on: smooth muscle of the blood vessel (superior mesenteric artery); assay: Relaxation effect on smooth muscle of blood vessel (spiral specimen of superior mesenteric artery contracted with 20 mM KCl); conditions: Oryctolagus cuniculus; concentration giving 50% relaxation; contraction induced by 20 mM KCl taken as 100%; 37°±0.5° C.; rabbit superior mesenteric artery; read-out: ED50 (the source's name)
Structures can show the parent of a compound that is named as a salt.

compound	EC50, µM
NCCNS(=O)(=O)c1ccc(Cl)c2ccncc12 [Example 1, hydrochloride]	32

----------
target: myosin light-chain kinase (Gallus gallus, UniProt P11799)
Sequence (P11799 935-1906): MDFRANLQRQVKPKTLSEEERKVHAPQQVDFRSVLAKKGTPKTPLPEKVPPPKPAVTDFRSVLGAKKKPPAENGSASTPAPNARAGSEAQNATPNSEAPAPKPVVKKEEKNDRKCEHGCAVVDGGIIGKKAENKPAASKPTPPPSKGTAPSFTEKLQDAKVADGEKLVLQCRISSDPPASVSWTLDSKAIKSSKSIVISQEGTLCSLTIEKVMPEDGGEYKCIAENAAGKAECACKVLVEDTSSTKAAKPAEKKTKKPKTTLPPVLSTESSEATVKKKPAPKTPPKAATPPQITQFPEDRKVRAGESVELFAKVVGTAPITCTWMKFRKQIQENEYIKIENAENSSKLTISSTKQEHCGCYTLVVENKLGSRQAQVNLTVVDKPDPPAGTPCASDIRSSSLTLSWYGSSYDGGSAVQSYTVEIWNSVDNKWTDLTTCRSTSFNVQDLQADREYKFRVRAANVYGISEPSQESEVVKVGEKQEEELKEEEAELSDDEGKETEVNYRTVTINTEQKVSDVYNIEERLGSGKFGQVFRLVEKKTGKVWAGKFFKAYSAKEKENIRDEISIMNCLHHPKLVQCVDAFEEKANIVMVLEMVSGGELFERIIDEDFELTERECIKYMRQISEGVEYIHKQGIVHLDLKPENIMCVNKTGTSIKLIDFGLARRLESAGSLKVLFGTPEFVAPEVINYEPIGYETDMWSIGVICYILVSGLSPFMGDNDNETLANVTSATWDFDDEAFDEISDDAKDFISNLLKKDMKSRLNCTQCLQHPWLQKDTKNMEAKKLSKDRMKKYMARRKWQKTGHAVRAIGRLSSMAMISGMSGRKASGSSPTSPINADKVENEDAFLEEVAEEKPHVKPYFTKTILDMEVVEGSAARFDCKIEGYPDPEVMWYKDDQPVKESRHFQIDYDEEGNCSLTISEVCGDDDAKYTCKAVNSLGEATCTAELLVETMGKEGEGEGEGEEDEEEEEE
pIC50: −log10 of the molar value. Where a name gives a salt, the structure may show the parent alone.

molecule	pIC50
NCCNS(=O)(=O)c1ccc(Cl)c2ccncc12 [Example 1, hydrochloride]	4.51
